Where these numbers come from: ChEMBL document CHEMBL3885881

Organism: Rattus norvegicus
runDescription: DrugMatrix - Regimen: Daily Repeat
Format: toxicity, organism-based, Sprague-Dawley
Parameters: regimen Daily Repeat, gender Male, age 6-8 weeks
assayContext: in vivo, po, 0 mg/kg, 120 h, tissue Blood, route oral GAVAGE, dose level Control, time 5 day, […]
The following molecules are listed with their measured ABSOLUTE MONOCYTE values.

>  <molecule>
CN(C)c1nc(N(C)C)nc(N(C)C)n1

>  <ABSOLUTE MONOCYTE / CELLS/uL>
134.17

$$$$
>  <molecule>
CC(C)C(=O)Nc1ccc([N+](=O)[O-])c(C(F)(F)F)c1 [FLUTAMIDE]

>  <ABSOLUTE MONOCYTE / CELLS/uL>
47

$$$$
>  <molecule>
O=c1oc2ccccc2c(O)c1Cc1c(O)c2ccccc2oc1=O

>  <ABSOLUTE MONOCYTE / CELLS/uL>
84.67

$$$$
>  <molecule>
CC(C)(Oc1ccc(Cl)cc1)C(=O)O

>  <ABSOLUTE MONOCYTE / CELLS/uL>
172.5

$$$$
>  <molecule>
Cc1ccc(-c2cc(C(F)(F)F)nn2-c2ccc(S(N)(=O)=O)cc2)cc1

>  <ABSOLUTE MONOCYTE / CELLS/uL>
376.5

$$$$
>  <molecule>
Cc1oncc1C(=O)Nc1ccc(C(F)(F)F)cc1 [LEFLUNOMIDE]

>  <ABSOLUTE MONOCYTE / CELLS/uL>
98.67

$$$$
>  <molecule>
O=NN(CCCl)C(=O)NC1CCCCC1

>  <ABSOLUTE MONOCYTE / CELLS/uL>
134.17

$$$$
>  <molecule>
C[C@@H]1CN(c2c(F)c(N)c3c(=O)c(C(=O)O)cn(C4CC4)c3c2F)C[C@H](C)N1

>  <ABSOLUTE MONOCYTE / CELLS/uL>
134.17

$$$$
>  <molecule>
CCC(C)n1ncn(-c2ccc(N3CCN(c4ccc(OCC5COC(Cn6cncn6)(c6ccc(Cl)cc6Cl)O5)cc4)CC3)cc2)c1=O (stereo unspecified)

>  <ABSOLUTE MONOCYTE / CELLS/uL>
376.5

$$$$
>  <molecule>
OC(Cn1cncn1)(Cn1cncn1)c1ccc(F)cc1F

>  <ABSOLUTE MONOCYTE / CELLS/uL>
376.5

$$$$
>  <molecule>
Cc1noc(NS(=O)(=O)c2ccc(N)cc2)c1C

>  <ABSOLUTE MONOCYTE / CELLS/uL>
117

$$$$

* * *

The following compounds are listed with their measured BLOOD UREA NITROGEN values.
Species: Rattus norvegicus
runDescription: DrugMatrix - Regimen: Daily Repeat
Format: toxicity, organism-based, Sprague-Dawley
Set-up: regimen Daily Repeat, gender Male, age 6-8 weeks
assayContext: in vivo, iv, 0 mg/kg, 120 h, tissue Plasma, dose level Control, time 5 day, vehicle 100 % SALINE
Starred links: 1 amine or outer side, 2 acyl side, 3 side chain; linkers in the order of their positions; H or OH if unused. Positions of bridges follow the written chain, without caps; N, C: chain ends. Non-standard residues stand in square brackets, D forms with d. Residues, ends and D or L forms follow the SMILES beside them. Chains are numbered I, II in the order given. Actinocin(9to1) = Cc1c2oc3c(C)ccc(C(=O)[*:1])c3nc-2c(C(=O)[*:2])c(N)c1=O; NMeV = CN[C@H](C(=O)O)C(C)C; Sar = CNCC(=O)O
testReadout: BLOOD UREA NITROGEN (mg/dL)

>  <compound>
Cc1c2oc3c(C)ccc(C(=O)N[C@@H]4C(=O)N[C@H](C(C)C)C(=O)N5CCC[C@H]5C(=O)N(C)CC(=O)N(C)[C@@H](C(C)C)C(=O)O[C@@H]4C)c3nc-2c(C(=O)N[C@@H]2C(=O)N[C@H](C(C)C)C(=O)N3CCC[C@H]3C(=O)N(C)CC(=O)N(C)[C@@H](C(C)C)C(=O)O[C@@H]2C)c(N)c1=O [DACTINOMYCIN] (I: T[dV]P[Sar][NMeV] / II: T[dV]P[Sar][NMeV]; ester I:1-I:C, II:1-II:C; linker I:N-II:N via Actinocin(9to1))

>  <testReadout>
BLOOD UREA NITROGEN

>  <unitOfMeasurement>
mg/dL

>  <observedMeasurement>
15.17

$$$$
>  <compound>
CC[C@]1(O)C[C@H]2CN(CCc3c([nH]c4ccccc34)[C@@](C(=O)OC)(c3cc4c(cc3OC)N(C=O)[C@H]3[C@@](O)(C(=O)OC)[C@H](OC(C)=O)[C@]5(CC)C=CCN6CC[C@]43[C@@H]65)C2)C1 [VINCRISTINE]

>  <testReadout>
BLOOD UREA NITROGEN

>  <unitOfMeasurement>
mg/dL

>  <observedMeasurement>
17

$$$$
>  <compound>
COc1cc2c3cc1Oc1cc(ccc1O)C[C@@H]1c4c(cc(OC)c(O)c4Oc4ccc(cc4)C[C@@H]3N(C)CC2)CC[N+]1(C)C.[Cl-]

>  <testReadout>
BLOOD UREA NITROGEN

>  <unitOfMeasurement>
mg/dL

>  <observedMeasurement>
17.67

$$$$
>  <compound>
Cc1ccc(N(CC2=NCCN2)c2cccc(O)c2)cc1 [PHENTOLAMINE]

>  <testReadout>
BLOOD UREA NITROGEN

>  <unitOfMeasurement>
mg/dL

>  <observedMeasurement>
15.5

$$$$
